- system under test: human mGlu5 (Homo sapiens, UniProt P41594)
- Construct: expressed in transfected cells
- Sequence (P41594 21-1212): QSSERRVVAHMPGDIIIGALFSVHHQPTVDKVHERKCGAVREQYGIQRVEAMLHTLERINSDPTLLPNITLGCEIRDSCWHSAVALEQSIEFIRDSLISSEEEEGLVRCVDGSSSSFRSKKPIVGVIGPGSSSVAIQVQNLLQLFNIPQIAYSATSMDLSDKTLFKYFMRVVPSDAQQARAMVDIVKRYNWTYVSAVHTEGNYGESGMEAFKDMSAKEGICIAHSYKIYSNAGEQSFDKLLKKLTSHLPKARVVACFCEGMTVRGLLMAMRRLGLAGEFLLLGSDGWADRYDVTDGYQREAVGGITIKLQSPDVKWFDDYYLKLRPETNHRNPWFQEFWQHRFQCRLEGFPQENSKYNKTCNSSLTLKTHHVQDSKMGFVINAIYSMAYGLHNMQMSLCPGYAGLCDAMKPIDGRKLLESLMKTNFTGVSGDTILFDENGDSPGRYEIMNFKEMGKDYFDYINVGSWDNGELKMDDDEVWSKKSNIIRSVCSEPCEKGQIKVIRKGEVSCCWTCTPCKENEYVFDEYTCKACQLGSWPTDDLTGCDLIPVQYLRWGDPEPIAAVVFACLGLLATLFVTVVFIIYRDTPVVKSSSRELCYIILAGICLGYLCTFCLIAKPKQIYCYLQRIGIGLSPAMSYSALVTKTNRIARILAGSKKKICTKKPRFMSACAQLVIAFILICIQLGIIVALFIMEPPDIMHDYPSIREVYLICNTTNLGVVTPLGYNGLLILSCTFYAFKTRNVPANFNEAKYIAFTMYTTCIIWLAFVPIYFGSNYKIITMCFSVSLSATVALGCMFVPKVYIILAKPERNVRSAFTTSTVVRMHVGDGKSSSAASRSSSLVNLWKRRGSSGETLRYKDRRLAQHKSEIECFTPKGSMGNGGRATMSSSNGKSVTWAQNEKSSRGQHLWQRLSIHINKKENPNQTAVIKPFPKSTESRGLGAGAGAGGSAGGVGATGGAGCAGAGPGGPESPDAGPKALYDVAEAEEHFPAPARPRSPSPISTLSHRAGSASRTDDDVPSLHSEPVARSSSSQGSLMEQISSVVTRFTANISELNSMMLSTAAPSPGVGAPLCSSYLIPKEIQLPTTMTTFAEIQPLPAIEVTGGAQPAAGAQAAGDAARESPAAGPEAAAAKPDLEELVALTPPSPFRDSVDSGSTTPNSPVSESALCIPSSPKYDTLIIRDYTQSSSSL
- test summary: Calcium mobilization assay in human mGlu5-HEK293A cells (NAM, EC80 glutamate)
- Assay type: cell-based
- measurement conditions: human mGlu5-HEK293A cells, EC80 fixed concentration of glutamate, n = 2 in triplicate
Decision: pIC50 compared against 6; not below it gives Yes, below it gives No.

Past entries and their recorded results:
{"compound": "Cc1cc(Oc2cnn(C)c2)cc(C(=O)Nc2nc(C)cs2)n1 [22iB]", "system under test": "human mGlu5 (Homo sapiens, UniProt P41594)", "classification": "Yes"}
{"compound": "Cc1cc(Oc2ccnn2C)cc(C(=O)Nc2ccc(F)cn2)n1 [22hA]", "system under test": "human mGlu5 (Homo sapiens, UniProt P41594)", "classification": "Yes"}

Form field: pIC50 at least 6? Entry: Cc1cccc(NC(=O)c2cc(Oc3c(C)nn(C)c3C)cc(C)n2)n1 [22aC]
No

Quick check, pIC50 >= 6? Cc1cc(Oc2cc(C(F)F)n(C)n2)cc(C(=O)Nc2nc(C)cs2)n1 [22cB]
No

API: above_or_equal(metric=pIC50, cutoff=6) for item Cc1cc(Oc2cnn(C)c2C(F)(F)F)cc(C(=O)Nc2ccc(F)cn2)n1 [22gA]
Yes

Does the compound Cc1cc(Oc2cc(C)n(C)n2)cc(C(=O)Nc2nc(C)cs2)n1 [22eB] have recorded pIC50 that is 6 or more?
No

Is pIC50 for Cc1cc(Oc2cnn(C)c2)cc(C(=O)Nc2ccc(F)cn2)n1 [22iA] at or above 6?
Yes

Please indicate if the recorded pIC50 for Cc1cc(Oc2ncn(C)n2)cc(C(=O)Nc2nc(C)cs2)n1 [22dB] meets or exceeds 6.
No

====

- test summary: Intrinsic clearance in human liver microsomes
- Format: in vitro ADME
- measurement conditions: pH 7.4; human liver microsomes
For each record, write down the corresponding log10(CLint scaled at 40 min, 1 µM).
Use the decimal logarithm of CLint scaled at 40 min, 1 µM (mL/min/kg).

Check out these entries, answers already filled in.
{"molecule": "Cc1cccc(NC(=O)c2cc(Oc3cc(C)nn3C)cc(C)n2)n1 [22fC]", "log10(CLint scaled at 40 min, 1 µM)": 1.85}
{"molecule": "Cc1cccc(NC(=O)c2cc(Oc3cnn(C)c3C(F)(F)F)cc(C)n2)n1 [22gC]", "log10(CLint scaled at 40 min, 1 µM)": 1.83}
{"molecule": "Cc1cc(Oc2cnn(C)c2)cc(C(=O)Nc2ccc(F)cn2)n1 [22iA]", "log10(CLint scaled at 40 min, 1 µM)": 0.95}
{"molecule": "Cc1cc(Oc2ccnn2C)cc(C(=O)Nc2nc(C)cs2)n1 [22hB]", "log10(CLint scaled at 40 min, 1 µM)": 2.33}

Now look at this one.
What value of measured log10(CLint scaled at 40 min, 1 µM) is listed for Cc1cccc(NC(=O)c2cc(Oc3ccnn3C)cc(C)n2)n1 [22hC] ?
2.38

====

- test summary: IV plasma-brain level determination (PBL) in rat
- Format: in vivo
- measurement conditions: male, Sprague-Dawley, brain and plasma, SD rat, 0.2 mg/kg IV, total brain-to-plasma partition ratio
Label yes (1) when Kp at 0.25 h is strictly below 2; at or above that, label no (0).

{"compound": "Cc1cc(Oc2cnn(C)c2)cc(C(=O)Nc2nc(C)cs2)n1 [22iB]", "classification": "yes (1)"}
{"compound": "Cc1cc(Oc2cnn(C)c2C(F)(F)F)cc(C(=O)Nc2nc(C)cs2)n1 [22gB]", "classification": "no (0)"}
{"compound": "Cc1cccc(NC(=O)c2cc(Oc3ccnn3C)cc(C)n2)n1 [22hC]", "classification": "no (0)"}
{"compound": "Cc1cccc(NC(=O)c2cc(Oc3cnn(C)c3)cc(C)n2)n1 [22iC]", "classification": "yes (1)"}

In the record for Cc1cc(Oc2ccnn2C)cc(C(=O)Nc2nc(C)cs2)n1 [22hB] , is Kp at 0.25 h less than 2?
yes (1)

Lab note: Kp at 0.25 h threshold 2. Does this compound come in strictly under it? Cc1cccc(NC(=O)c2cc(Oc3cc(C)nn3C)cc(C)n2)n1 [22fC]
yes (1)

Hi there! Is Kp at 0.25 h for Cc1cc(Oc2cnn(C)c2C(F)(F)F)cc(C(=O)Nc2ccc(F)cn2)n1 [22gA] below 2, do you know?
no (0)

Determine whether this compound shows Kp at 0.25 h lower than 2 (ties excluded): Cc1cc(Oc2cnn(C)c2)cc(C(=O)Nc2ccc(F)cn2)n1 [22iA]
yes (1)

====

- test summary: Intrinsic clearance in rat liver microsomes
- Format: in vitro ADME
- measurement conditions: predicted hepatic clearance based on microsomal CLint
readout name: CLhep, rat (mL/min/kg)
Numbers only, in mL/min/kg.

Please give CLhep, rat, item by item, for the list that follows.
1. Cc1cccc(NC(=O)c2cc(Oc3cnn(C)c3C(F)(F)F)cc(C)n2)n1 [22gC]
2. Cc1cc(Oc2ccnn2C)cc(C(=O)Nc2nc(C)cs2)n1 [22hB]
3. Cc1cc(Oc2cnn(C)c2)cc(C(=O)Nc2ccc(F)cn2)n1 [22iA]
4. Cc1cc(Oc2cnn(C)c2C(F)(F)F)cc(C(=O)Nc2ccc(F)cn2)n1 [22gA]
5. Cc1cccc(NC(=O)c2cc(Oc3cnn(C)c3)cc(C)n2)n1 [22iC]
6. Cc1cc(Oc2cnn(C)c2C(F)(F)F)cc(C(=O)Nc2nc(C)cs2)n1 [22gB]
7. Cc1cccc(NC(=O)c2cc(Oc3ccnn3C)cc(C)n2)n1 [22hC]
8. Cc1cccc(NC(=O)c2cc(Oc3cc(C)nn3C)cc(C)n2)n1 [22fC]

63
27
28
38
54
65
57
60

Param item = Cc1cc(Oc2cnn(C)c2)cc(C(=O)Nc2nc(C)cs2)n1 [22iB] ; retrieve measured CLhep, rat.
27

====

For each entry below, report its log10(IC50) value.
- system under test: human mGlu5 (Homo sapiens, UniProt P41594)
- Construct: expressed in transfected cells
- test summary: Calcium mobilization assay in human mGlu5-HEK293A cells (NAM, EC80 glutamate)
- Assay type: cell-based
- measurement conditions: human mGlu5-HEK293A cells, EC80 fixed concentration of glutamate; read-out: hmGlu5 IC50
Parameter value (number): base-10 log of IC50 in nM.

{"compound": "Cc1cc(Oc2cnn(C)c2C(F)(F)F)cc(C(=O)Nc2ccc(F)cn2)n1 [22gA]", "log10(IC50)": 2.08}
{"compound": "Cc1cc(Oc2cnn(C)c2)cc(C(=O)Nc2nc(C)cs2)n1 [22iB]", "log10(IC50)": 1.45}
{"compound": "Cc1cccc(NC(=O)c2cc(Oc3ccnn3C)cc(C)n2)n1 [22hC]", "log10(IC50)": 1.96}
{"compound": "Cc1cc(Oc2cnn(C)c2)cc(C(=O)Nc2ccc(F)cn2)n1 [22iA]", "log10(IC50)": 2.51}
{"compound": "Cc1cc(Oc2cc(C(F)F)n(C)n2)cc(C(=O)Nc2nc(C)cs2)n1 [22cB]", "log10(IC50)": 3.27}

For each listed entry, give its log10(IC50).
1. Cc1cc(Oc2ncn(C)n2)cc(C(=O)Nc2nc(C)cs2)n1 [22dB]
2. Cc1cccc(NC(=O)c2cc(Oc3ncn(C)n3)cc(C)n2)n1 [22dC]
3. Cc1cc(Oc2ccnn2C)cc(C(=O)Nc2ccc(F)cn2)n1 [22hA]
4. Cc1cccc(NC(=O)c2cc(Oc3cnn(C)c3)cc(C)n2)n1 [22iC]
5. Cc1cccc(NC(=O)c2cc(Oc3cc(C)nn3C)cc(C)n2)n1 [22fC]
6. Cc1cc(Oc2ccnn2C)cc(C(=O)Nc2nc(C)cs2)n1 [22hB]

3.28
3.00
2.70
1.61
2.32
1.98

Could you tell me which log10(IC50) is on file for Cc1cc(Oc2cn(C)nc2C)cc(C(=O)Nc2nc(C)cs2)n1 [22bB] ?
3.10

====

- test summary: Binding in plasma from rat (equilibrium dialysis)
- Format: in vitro ADME
- measurement conditions: rat, plasma, fraction unbound; equilibrium dialysis; read-out: Rat fu,plasma
readout name: fraction unbound at 6 h, 5 µM
Give bare numbers.

Some molecules with recorded fraction unbound at 6 h, 5 µM:
{"molecule": "Cc1cccc(NC(=O)c2cc(Oc3cnn(C)c3)cc(C)n2)n1 [22iC]", "fraction unbound at 6 h, 5 µM": 0.059}
{"molecule": "Cc1cc(Oc2cnn(C)c2)cc(C(=O)Nc2ccc(F)cn2)n1 [22iA]", "fraction unbound at 6 h, 5 µM": 0.059}

Now let's try a different one.
Reported fraction unbound at 6 h, 5 µM, molecule Cc1cc(Oc2cnn(C)c2)cc(C(=O)Nc2nc(C)cs2)n1 [22iB] : ____
0.089
